System: Trypanosoma cruzi
Assay: Trypanosoma cruzi phosphomannomutase and mannose-1-phosphate guanylyltransferase assay
Format: functional
Set-up: scale not given: direction of the effect not stated beside the values
Conditions: 10 µM
Percent Effect values by entry
Give just the numeric value; % need not be written.

A selection of reference data follows.
# Molecule, Quantity, Test Result
data = [
    ("CC(C)c1nnc2n1CCN(CC(=O)N1CCc3ccccc3C1)C2", "Percent Effect", 6.01),
    ("Cn1cc(CN2CCC3(CCCN3S(C)(=O)=O)CC2)cn1", "Percent Effect", -5.36),
    ("CCN1C(=O)CCCC12CCCN(C(=O)c1conc1C)C2 (centres undefined)", "Percent Effect", -3.75),
    ("Cc1nnc2n1CCN(C(C(=O)NC1CC1)c1ccccc1)C2 (centres undefined)", "Percent Effect", 3.47),
    ("CCOCC(O)CN1CCN(C(=O)c2cccnc2OC)CC1 (centres undefined)", "Percent Effect", -0.936),
]

Name the reported Percent Effect value associated with the molecule COCCn1cc(C(=O)N2CCCC2c2cccc(F)c2)ccc1=O (centres undefined)
-2.7

I would be grateful if you could share the reported Percent Effect for `Cn1cnc2c1CCN(CCCc1ccccc1)C2` .
5.62

Need Percent Effect of CCc1nc(C2CCCN(C(=O)c3ccc4c(c3)nnn4C)C2)no1 (centres undefined) , thanks.
5.19

I'd like to know its Percent Effect. The molecule in question is CC(CNC(=O)N1CCN(CC(F)F)CC1)Cc1cccs1 (centres undefined)
-1.17

Item under review: COCCCC1CCCN(C(=O)CCc2cc(O)no2)C1 (centres undefined) . Reported Percent Effect?
1.46

Query: Percent Effect; subject: O=C(NCCCn1cncn1)N1CCCC(N2CCCC2)C1 (centres undefined)
3.01

Requested read-out: Percent Effect. Entry: `CS(=O)(=O)N1CCC(NC(=O)COc2ccc(Cl)c(Cl)c2)CC1`
-2.24

# input molecule: CC(NC(=O)N(C)Cc1ccsc1)c1ccc2c(c1)NC(=O)CO2 (centres undefined) ; wanted: its Percent Effect
6.39

Percent Effect for Cc1cc(C2CCCN2CCCS(=O)(=O)c2ccccc2)no1 (centres undefined) ?
-1.41

Using the record for `CCc1nnsc1C(=O)N1CCCN(Cc2cnn(C)c2)CC1` , report its Percent Effect.
7.74

Value lookup for Percent Effect; key = `CCc1cnc(N)nc1NCCN1CCCCC1`
6.59

---

Molecular target: Tyrosyl-tRNA synthetase, putative (Trypanosoma cruzi (strain CL Brener))
Test: Trypanosoma cruzi tyrosyl tRNA synthetase (TcYRS) _High Tyrosine SOP; further: in the data most compounds retested in dose-response had high values
Format: functional
Design: scale not given: direction of the effect not stated beside the values
Conditions: 30 µM
Quantity: Percent Effect (%)
Please reply with the bare figure in % and do not write the unit itself.

// solved cases for Percent Effect follow
# Compound, Percent Effect [%]
rows = [
    ("Cc1ccc(S(=O)(=O)N2C[C@@H]3C[C@@H](NC(=O)C(C)(C)C)[C@@H]3C2)cc1", 3.23),
    ("COCCN1CC(C(=O)NCc2ccnc(-n3cccn3)c2)CC1=O (stereo unspecified)", -2.39),
    ("Cc1nn(CCn2ccnc2-c2cc3n(n2)CCCNC3)c(C)c1Cl", 7.1),
]

Record request: Percent Effect value, item `N#Cc1ccc(OCCN2CCc3c(ncn3C3CC3)C2)cc1`
13.6

Entry `CC(C)c1cc(NC(=O)CN2CCc3cncnc3C2)on1` : reported Percent Effect = ?
16.5

I'd like to know its Percent Effect. The compound in question is `Cc1cccc(CN2C(=O)CO[C@@H]3CN(Cc4nccn4C)C[C@H]32)c1`
9.9

Which value of Percent Effect has been reported for CCc1nc(CN2CCCC(NCc3ccc(C(N)=O)cc3)C2)no1 (stereo unspecified) in the records?
-0.493

May I ask what Percent Effect has been recorded for Cc1oc(-c2ccco2)nc1CC(=O)N1CCC(C(O)C(F)(F)F)CC1 (stereo unspecified) ?
-0.952

What does the data say about its Percent Effect? Entry: `Cn1c(C2CC2)nc2c1CCN(CC(=O)Nc1nncs1)C2`
4.85

Entry `CCOCC(=O)N1CCC(Oc2ccc(Cl)cn2)CC1` has what Percent Effect?
8.47

Which Percent Effect value belongs to COc1cccc(CNC(CN2CCN(C)CC2)c2ccccc2)c1 (stereo unspecified) ?
1.07

---

Percent Effect for assorted compounds
Molecular target: Sialic acid-binding Ig-like lectin 9 (Homo sapiens) (UniProt Q9Y336)
Sequence (Q9Y336 whole entry): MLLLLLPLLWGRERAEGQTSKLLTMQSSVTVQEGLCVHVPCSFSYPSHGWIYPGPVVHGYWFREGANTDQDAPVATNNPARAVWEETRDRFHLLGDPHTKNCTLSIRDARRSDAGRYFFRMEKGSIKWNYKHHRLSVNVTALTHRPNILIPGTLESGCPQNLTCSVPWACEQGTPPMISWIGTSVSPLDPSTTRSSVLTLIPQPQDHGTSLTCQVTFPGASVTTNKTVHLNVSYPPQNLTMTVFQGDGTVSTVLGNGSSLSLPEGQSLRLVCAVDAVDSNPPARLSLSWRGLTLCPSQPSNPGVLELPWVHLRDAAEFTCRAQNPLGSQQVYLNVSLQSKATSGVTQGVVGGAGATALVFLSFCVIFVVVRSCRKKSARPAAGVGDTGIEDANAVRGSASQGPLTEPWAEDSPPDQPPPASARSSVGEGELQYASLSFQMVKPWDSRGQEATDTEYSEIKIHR
Assay: Hs-Siglec9 ALPHAscreen SOP 20170721
Design: scale not given: direction of the effect not stated beside the values
Details: 10 µM
Quote the value and follow it with the unit of measurement.

Look over these answered cases.
# Compound, Percent Effect
data = [
    ("COC(=O)C1CCN(C(=O)c2ccc(N(C)S(C)(=O)=O)c(C)c2)CC1", "-4.09%"),
    ("CCn1cnnc1CNC(=O)N1CCN(c2nc(C)c(C)s2)CC1", "12.2%"),
    ("Cc1cccn2c(=O)cc(OC(=O)c3ccccc3)nc12", "-1.9%"),
    ("Cn1nc2c(cc1=O)CN(Cc1nnc(-c3ccc(F)cc3)o1)CC2", "-9.64%"),
    ("COc1ccc(CN2CCN(C(C)c3nc(C4CC4)no3)CC2)cc1 (centres undefined)", "2.49%"),
]

Recorded Percent Effect of `CCSc1ccc(C(=O)Nc2c(C)nn(C(C)C)c2C)cn1` , please.
-2.98%

---

Molecular target: Sialic acid-binding Ig-like lectin 9 (Homo sapiens) (UniProt Q9Y336)
Assay: Hs-Siglec9 ALPHAscreen SOP 20170721
Set-up: scale not given: direction of the effect not stated beside the values
Settings: 10 µM
Quantity: Percent Effect (%)
Write the number in % without appending the unit.

Study these solved cases before continuing.
# Compound, Measured On, Quantity, Unit String, Test Result
rows = [
    ("COc1c(CNC2CCc3cc(F)ccc32)c(C)nn1C (stereo unspecified)", "Sialic acid-binding Ig-like lectin 9 (Homo sapiens) (UniProt Q9Y336)", "Percent Effect", "%", 8.9),
    ("CC(C(=O)NCCN1CCCCCC1)n1cncn1 (stereo unspecified)", "Sialic acid-binding Ig-like lectin 9 (Homo sapiens) (UniProt Q9Y336)", "Percent Effect", "%", 2.07),
    ("Cc1cnn(CC2CCCN2CC(=O)Nc2cc(C)nn2C)c1 (stereo unspecified)", "Sialic acid-binding Ig-like lectin 9 (Homo sapiens) (UniProt Q9Y336)", "Percent Effect", "%", 5.19),
    ("O=C1CCCN1Cc1nnc2n1CCN(Cc1ccoc1)CC2", "Sialic acid-binding Ig-like lectin 9 (Homo sapiens) (UniProt Q9Y336)", "Percent Effect", "%", -2.11),
    ("Cc1cc(C(=O)N2CC[C@@H]3CN(S(C)(=O)=O)CCO[C@@H]3C2)c(C)o1", "Sialic acid-binding Ig-like lectin 9 (Homo sapiens) (UniProt Q9Y336)", "Percent Effect", "%", -7.58),
    ("Cc1nn(C)c(C)c1C1CCCN1C(=O)c1cnc2n[nH]c(C)c2c1 (stereo unspecified)", "Sialic acid-binding Ig-like lectin 9 (Homo sapiens) (UniProt Q9Y336)", "Percent Effect", "%", 13.8),
]

Endpoint output: Percent Effect of O=C(c1cccc(OC2CCCC2)c1)N1CCCC(n2cncn2)C1 (stereo unspecified) . Value?
4.98

For the compound shown here, CC(O)CC(C)(C)CNC(=O)NCc1cccc(-n2ccnc2)c1 (stereo unspecified) , give the reported Percent Effect.
-7.44

Tell me the measured Percent Effect of `CCC(=O)N1CCC(Cc2nccnc2Nc2ccccn2)CC1` , please.
-4.87

Recorded Percent Effect of `CCN(C)S(=O)(=O)N(CC)Cc1ccc2c(c1)OCO2` , please.
4.35

Given `COC(=O)c1cc(OCC2CCC2)cc(C(=O)N[C@H]2CC[C@H](O)CC2)c1` , state its recorded Percent Effect.
12.3

// Percent Effect lookup, key: Cc1cccc(C(=O)N2CCCCC2c2ccc(CN(C)C)cc2)n1 (stereo unspecified)
3.59

Which measured Percent Effect value corresponds to O=C(NCc1cc[nH]n1)N1CCCCC(N2CCCC2)C1 (stereo unspecified) ?
11.7

What value of measured Percent Effect is listed for CC(C)c1n[nH]c(C2CN(C(=O)c3csnn3)CCO2)n1 (stereo unspecified) ?
6.92

What measured Percent Effect goes with `Cc1cc(C)n(Cc2ccc(C(=O)NCCN3CCOCC3)cc2)n1` ?
-1.95

Which Percent Effect value is on record for `Cc1nccc([C@H]2C[C@@H]3CCN(S(=O)(=O)N(C)C)C[C@H]3O2)n1` ?
27.4

Given the compound `O=C(CCCNC(=O)C1CC1)Nc1cnn(-c2ccccc2Cl)c1` , what is its reported Percent Effect?
0.665

So what does the record say about Percent Effect for CNc1cccc(C2CCCN(C(C)=O)C2)n1 (stereo unspecified) ?
-7.25

What value of Percent Effect has been reported for the following compound? `Cc1ccoc1C(=O)NC1CCN(Cc2cccc3c2OCCO3)CC1`
6.72
